Items are presented alongside their recorded MFI.
Target: DLL3 endogenously expressed on NCI-H82 cells (UniProt Q9NYJ7)
Sequence (Q9NYJ7 27-618): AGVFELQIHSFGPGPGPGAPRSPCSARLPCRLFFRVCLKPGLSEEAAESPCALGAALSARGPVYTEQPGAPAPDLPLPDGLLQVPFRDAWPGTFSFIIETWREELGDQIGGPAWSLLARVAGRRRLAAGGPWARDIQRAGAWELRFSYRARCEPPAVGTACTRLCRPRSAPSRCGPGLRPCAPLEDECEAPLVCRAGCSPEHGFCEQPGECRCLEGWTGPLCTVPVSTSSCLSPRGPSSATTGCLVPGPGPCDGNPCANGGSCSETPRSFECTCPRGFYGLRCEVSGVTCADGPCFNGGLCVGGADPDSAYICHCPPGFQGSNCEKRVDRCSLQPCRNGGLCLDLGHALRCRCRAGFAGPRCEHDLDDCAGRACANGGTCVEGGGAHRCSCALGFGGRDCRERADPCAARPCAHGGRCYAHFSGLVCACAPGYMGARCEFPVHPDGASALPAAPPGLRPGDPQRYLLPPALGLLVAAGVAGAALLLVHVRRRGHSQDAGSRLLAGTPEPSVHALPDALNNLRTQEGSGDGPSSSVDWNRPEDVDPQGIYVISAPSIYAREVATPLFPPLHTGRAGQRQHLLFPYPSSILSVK
Test: FACS on NCI-H82 cells; antibody 0.00128 nM
The reply should be a number, written without any unit.

May I ask what MFI has been recorded for mab008 scFv-hFc (Fc fusion, part only; not given: linker and human IgG1 Fc, not shown: a dimerising Fc or GST) chain, part: DIVMTQSQKFMSTSVGDRVSITCKASQNVGTAVAWYQQKPGQSPKLLIFSASIRYTGVPDRFTGSGSGTDFTLTISNMQSEDLADYFCQQYSSSPYTFGGGTKLEIKEVQLQQSGPVLVKPGASVKMSCKASGYTFTDYYMNWVKRSHGKSLEWIGIINPYNGGTSYNQKFRGKATLTVDKSSNTAYMELNSLTSEDSAVYYCSRYDYDYDVEGAMDYWGQGTSVTVSS ? 113

***
May I ask what MFI has been recorded for mab014 scFv-hFc (Fc fusion, part only; not given: Linker and human IgG1 Fc, not shown: a dimerising Fc or GST) chain, part: DIQMTQSSSSFSVSLGDRVTITCKASEDIYNRLAWYQQKPGNTPRLLISGATSLETGVPSRFSGSGSGKDFTLSITSLQTEDVATYYCQQYWSLPWTFGGGTKLEIKEVQLHQSGPELVKPGTSVKISCKASGYTFTDYYMNWVKQSHGKSLEWIGDINPNHGDTGYNQKFTGKATLTVDKSSSTAYMELRSLTSEDSAVYYCARNFFYYGTTYGWYFDVWGTGTTVTVSS ? 112

Another: BI3 (antibody, human IgG1, kappa, V domains shown) VH: QVQLVQSGAEVKKPGASVKVSCKASGYTFTSYYVHWVRQAPGQGLEWMVIINPGGGTTSYAQKFLGRVTMTRDTSTNTVYMELKSLRSEDTAVYYCARGEAVTGNYFYYGMDVWGQGTTVTVSS VL: DIQMTQSPSAMSASVGDRVTITCRASQGISNYLVWFQQKPGKAPKRLIYAVSSLYSGVPSRFSGSGSGTEFTLTISSLQPEDFATYYCLQHDSYPYTFGQGTKLEIKR 112

Another: mab009 scFv-hFc (Fc fusion, part only; not given: Linker and human IgG1 Fc, not shown: a dimerising Fc or GST) chain, part: DIVMTQSPATLSVTPGDRVSLSCRASQTISDYLHWYQQRSHESPRLLIKYASQSISGIPSRFSGSGSGSDFTLSINSVEPEDVGVYYCQNGHSFPLTFGAGTKLELKEVQLQQSGTVLARPGASVKMSCKTSGYTFTSYWMHWVKQSPGQGLEWIGTIYPGNSDTRYNQKFKDKAYVTAVTSASTAYMELSSLTNEESAVYYCTRSYDYGDLDYWGQGTTLTVSS 123

Another: Hab014VL1VH2-hFc (scFv, part only; not given: VL-VH linker and human IgG1 Fc, V domains shown, not shown: another chain or arm of the molecule; a dimerising Fc or GST; small tags and cut ends) VL: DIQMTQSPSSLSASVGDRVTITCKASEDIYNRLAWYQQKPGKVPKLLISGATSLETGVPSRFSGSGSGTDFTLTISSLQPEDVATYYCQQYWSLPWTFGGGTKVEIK VH: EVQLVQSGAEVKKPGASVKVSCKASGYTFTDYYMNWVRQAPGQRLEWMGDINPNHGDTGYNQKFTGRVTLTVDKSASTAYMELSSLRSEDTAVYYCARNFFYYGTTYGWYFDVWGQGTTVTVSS 110
